target: T1, Aβ1–42 peptide film (mostly monomeric Aβ1–42) (UniProt P05067 672-713); test: ELISA; Aβ1–42 peptide film (mostly monomers) coated on the plate (10 µg/ml, bicarbonate-carbonate buffer pH 9.6); D-compounds from 10 µg/ml, 2 h at 37°C; detected by anti-fluorescein isothiocyanate-AP, pNPP 2.5 h; settings: both partners purified
T1 construct: amyloid-β peptide Aβ1–42, cut from the amyloid precursor protein (APP), freshly dissolved peptide film containing mostly monomers and smaller oligomers; Same peptide as m14, not fibrillised; also called Aβ1–42 monomers; Aβ peptide film; source: bought: Bachem (lyophilized powder); HFIP film, reconstituted with 0.54% DMSO in PBS
T1 sequence (P05067 672-713): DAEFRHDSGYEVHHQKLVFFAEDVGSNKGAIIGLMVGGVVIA
Square brackets hold non-standard residues; d marks the D form. Primed or numbered codes have the meaning given here. Ends that are not written are not given here. FITC′ = fluorescein isothiocyanate (ϕ)
Where binding value (ELISA, 10 ug/mL compound) equals or exceeds 1, the correct label is Y; where it does not, the label is N.

Q) Answer whether binding value (ELISA, 10 ug/mL compound) of [dP][dS][dH][dY][dR][dH][dI][dS][dP][dA][dQ][dK][dK](FITC′) (also: [19F]-4-fluorobenzoyl label, place not given here, D-enantiomeric derivative of ACI-80 (D1): Q1P, V12K, added C-terminal lysine, fluorinated; also called D1-Q1P-V12K-K[^19F]ϕ; source: synthetic peptide, reacted with [^19F]-N-succinimidyl-4-fluorobenzoate (SFB), HPLC purified) [[^19F]-ACI-89-Kϕ] is greater than or equal to 1.
A) Y

Q) Is the recorded value of binding value (ELISA, 10 ug/mL compound) equal to or greater than 1 for this binder? [dS][dF][dY][dR][dH][dI][dS][dP][dA][dQ][dV][dK](FITC′) (D-enantiomeric derivative of ACI-80 (D1): N-terminal glutamine deleted (Q1X), H3F, added C-terminal lysine; also called D1-Q1X-H3F-Kϕ; source: synthetic peptide (JPT Peptide Technologies GmbH, Berlin)) [ACI-85-Kϕ]
A) N

Q) State whether the measured binding value (ELISA, 10 ug/mL compound) reaches 1, counting equality as reaching it, for [dS][dH][dY][dR][dH][dI][dS][dP][dA][dQ][dK][dK](FITC′) (also: [19F]-4-fluorobenzoyl label, place not given here, D-enantiomeric derivative of ACI-80 (D1): N-terminal glutamine deleted (Q1X), V12K, added C-terminal lysine, fluorinated; also called D1-Q1X-V12K-K[^19F]ϕ; source: synthetic peptide, reacted with [^19F]-N-succinimidyl-4-fluorobenzoate (SFB), HPLC purified) [[^19F]-ACI-88-Kϕ]
A) Y

Q) Determine whether measured binding value (ELISA, 10 ug/mL compound) meets or exceeds 1 for [dQ][dS][dH][dY][dR][dH][dI][dS][dP][dA][dQ][dK][dK](FITC′) (also: [19F]-4-fluorobenzoyl label, place not given here, D-enantiomeric derivative of ACI-80 (D1): V12K, added C-terminal lysine, fluorinated; The text says V12K was made to enable fluorination; also called D1-V12K-K[^19F]ϕ; source: synthetic peptide, reacted with [^19F]-N-succinimidyl-4-fluorobenzoate (SFB), HPLC purified) [[^19F]-ACI-87-Kϕ]
A) N

Q) Say whether [dS][dH][dY][dR][dH][dI][dS][dP][dA][dQ][dK][dK](FITC′) (D-enantiomeric derivative of ACI-80 (D1): N-terminal glutamine deleted (Q1X), V12K, added C-terminal lysine; also called D1-Q1X-V12K-Kϕ; source: synthetic peptide (JPT Peptide Technologies GmbH, Berlin)) [ACI-88-Kϕ] shows binding value (ELISA, 10 ug/mL compound) of 1 or more.
A) Y

Q) Could you please find out whether [dQ][dS][dH][dY][dR][dH][dI][dS][dP][dA][dQ][dK][dK](FITC′) (D-enantiomeric derivative of ACI-80 (D1): V12K, added C-terminal lysine; also called D1-V12K-Kϕ; source: synthetic peptide (JPT Peptide Technologies GmbH, Berlin)) [ACI-87-Kϕ] has binding value (ELISA, 10 ug/mL compound) that meets 1 or exceeds it?
A) N

Q) Determine whether measured binding value (ELISA, 10 ug/mL compound) meets or exceeds 1 for [dP][dS][dH][dY][dR][dH][dI][dS][dP][dA][dQ][dK][dK](FITC′) (D-enantiomeric derivative of ACI-80 (D1): Q1P, V12K, added C-terminal lysine; also called D1-Q1P-V12K-Kϕ; source: synthetic peptide (JPT Peptide Technologies GmbH, Berlin)) [ACI-89-Kϕ]
A) Y

Q) Could you please find out whether [dP][dS][dF][dY][dR][dH][dI][dS][dP][dA][dQ][dV][dK](FITC′) (D-enantiomeric derivative of ACI-80 (D1): Q1P, H3F, added C-terminal lysine; also called D1-Q1P-H3F-Kϕ; source: synthetic peptide (JPT Peptide Technologies GmbH, Berlin)) [ACI-86-Kϕ] has binding value (ELISA, 10 ug/mL compound) that meets 1 or exceeds it?
A) N

Q) Item [dQ][dS][dH][dY][dR][dH][dI][dS][dP][dA][dQ][dV][dK](FITC′) (D-enantiomeric peptide ACI-80 (D1), selected by mirror image phage display on aggregated Aβ1–42, with an added C-terminal lysine; also called D1-Kϕ; source: synthetic peptide (JPT Peptide Technologies GmbH, Berlin)) [ACI-80-Kϕ] with binding value (ELISA, 10 ug/mL compound) of 1 or above?
A) N

Q) Exam item: decide whether the reported binding value (ELISA, 10 ug/mL compound) for [dS][dH][dY][dR][dH][dI][dS][dP][dA][dQ][dV][dK](FITC′) (D-enantiomeric derivative of ACI-80 (D1): N-terminal glutamine deleted (Q1X), added C-terminal lysine; also called D1-Q1X-Kϕ; source: synthetic peptide (JPT Peptide Technologies GmbH, Berlin)) [ACI-82-Kϕ] is at least 1.
A) N

Q) Would you say [dP][dS][dH][dY][dR][dH][dI][dS][dP][dA][dQ][dV][dK](FITC′) (D-enantiomeric derivative of ACI-80 (D1): Q1P, added C-terminal lysine; also called D1-Q1P-Kϕ; source: synthetic peptide (JPT Peptide Technologies GmbH, Berlin)) [ACI-83-Kϕ] shows binding value (ELISA, 10 ug/mL compound) at minimum 1?
A) Y

meta.source: paper PMC3404088
